tested on: Candida tropicalis; test: Antifungal activity against Candida tropicalis ATCC 750 assessed as inhibition of fungal growth incubated for 24 to 48 hrs by CLSI protocol based broth microdilution method; format: functional; conditions: time 24-48 hrs
MIC values by entry
API: value field is a number in µM; no unit string.

See these solved cases before continuing.
Compound: C/C(CCC(=O)O)=N\Nc1nc(-c2ccccc2)cs1
Target or test system: Candida tropicalis
Readout unit: µM
MIC: 3.4
--
Compound: C/C(=N\Nc1nc(-c2ccc(C)cc2)cs1)C(=O)O
Target or test system: Candida tropicalis
Readout unit: µM
MIC: 114
--
Compound: COc1ccc(-c2csc(N/N=C(\C)CCC(=O)O)n2)cc1
Target or test system: Candida tropicalis
Readout unit: µM
MIC: 6.1
--
Compound: C/C(=N\Nc1nc(-c2ccc(Br)cc2)cs1)C(=O)O
Target or test system: Candida tropicalis
Readout unit: µM
MIC: 91.9
--
Compound: CCOC(=O)Cc1csc(NN=C(C)C(=O)OCC)n1
Target or test system: Candida tropicalis
Readout unit: µM
MIC: 104

Tell me the measured MIC of C/C(CCC(=O)O)=N\Nc1nc(-c2ccc(F)cc2)cs1 , please.
6.3

---

tested on: Nakaseomyces glabratus; assay: Antifungal activity against Candida glabrata ATCC 2001 assessed as inhibition of fungal growth incubated for 24 to 48 hrs by CLSI protocol based broth microdilution method; format: functional; settings: time 24-48 hrs
Would you mind classing the entries by MIC? Ranges: range A: < 10 µM; range B: ≥ 10 µM and < 50 µM; range C: ≥ 50 µM

Compound: CCOC(=O)/C(C)=N/Nc1nc(-c2ccc(OC)cc2)cs1
Cat: range C

Compound: CCOC(=O)/C(C)=N/Nc1nc(-c2ccccc2)cs1
Cat: range C

Compound: CCOC(=O)/C(C)=N/Nc1nc(-c2ccc(Cl)cc2)cs1
Cat: range C

Compound: C/C(CCC(=O)O)=N\Nc1nc(-c2ccc(Cl)cc2)cs1
Cat: range C

Which band does CCOC(=O)Cc1csc(NN=C(C)C(=O)OCC)n1 fall in?
range C

Which band does CCOC(=O)Cc1csc(NN=C(C)CCO)n1 fall in?
range A

---

test: Apparent permeability across basolateral to apical side in human Caco-2 cells measured after 30 to 180 mins by HPLC-MS analysis; assay type: ADME, cell-based; conditions: time 30-180 min
Experimental readout: Papp B→A (×10⁻⁶ cm/s)
API: value field is a number in ×10⁻⁶ cm/s; no unit string.

Tell me the measured Papp B→A of CCOC(=O)Cc1csc(N/N=C(\C)CCC(=O)O)n1 , please.
5.26

---

experiment: Cytotoxicity against human PBMC cells assessed as inhibition of cell growth incubated for 24 to 48 hrs by MTT assay; assay type: toxicity, cell-based
Experimental readout: pIC50
By convention, pIC50 is the negative base-10 log of a molar concentration.

Query smiles: Nc1ccn([C@@H]2O[C@H](CO)[C@@H](O)[C@@H]2O)c(=O)n1
pIC50: 3.74

Now turn to the next compound.
Tell me the measured pIC50 of Cc1ccc(NC(=O)c2ccc(CN3CCN(C)CC3)cc2)cc1Nc1nccc(-c2cccnc2)n1 , please.
3.80

---

test system: [Candida] auris; assay: Antifungal activity against Candida auris COLO 01 assessed as inhibition of fungal growth incubated for 24 to 48 hrs by CLSI protocol based broth microdilution method; format: functional; details: Candidozyma auris, time 24-48 hrs
MIC values by entry
API: value field is a number in µM; no unit string.

See these solved cases before continuing.
Compound: C/C(CCC(=O)O)=N\Nc1nc(-c2ccccc2)cs1
Readout unit: µM
Value measured: 3.4
--
Compound: C/C(=N\Nc1nc(-c2ccc(Cl)cc2)cs1)C(=O)O
Readout unit: µM
Value measured: 6.6
--
Compound: CCOC(=O)/C(C)=N/Nc1nc(-c2ccc(Br)cc2)cs1
Readout unit: µM
Value measured: 21.2
--
Compound: CCN1CCCC(/C=N/Nc2nc(-c3ccc(Br)cc3)cs2)C1 (stereo unspecified)
Readout unit: µM
Value measured: 19.9

Tell me the measured MIC of C/C(CCC(=O)O)=N\Nc1nc(-c2ccc(C#N)cc2)cs1 , please.
0.8

Ref: ChEMBL document CHEMBL5375986
